Test system: DU-145 prostate
ASSAY_SUMMARY: NCI-60 one-dose screen, 48 h
RECORDED_CONDITIONS: 10 µM unless noted
About 83,000 compounds went through this panel and 20% of them were active in at least one assay; those are over-represented in the sample as a whole. The source made the active and inactive calls. The calls were made as follows: active = growth percent below 10; inactive = the rest.
A correct response names exactly one class from active, inactive

Example entries begin here.
So what was the verdict on `CCN1c2ccccc2C(Cl)(c2ccc(N(C)C)cc2)c2ccccc21` in this test? inactive

What was the test verdict on `CN(C)Cc1ccc[nH]1` ? inactive

Record lookup: outcome of this test for CCCCC(CCCCCC(CCCC)C1NC(C)Cc2cc(OC)c(OC)cc21)C1NC(C)Cc2cc(OC)c(OC)cc21 (stereo not given) ? active

In this assay, the call recorded for `C=C(C)[C@@H]1CC[C@]2(C(=O)NCCCCCCN(CCCN)CCCN)CC[C@]3(C)[C@H](CC[C@@H]4[C@@]5(C)CC[C@H](OCCCN)C(C)(C)[C@@H]5CC[C@]43C)[C@@H]12` was what? inactive

More entries:
Test call, this compound: COc1ccc2c(c1)C(C)Cc1c(Cl)nc(C)nc1N2C (stereo not given) inactive

* * *

System: SW-620 colon
ASSAY_SUMMARY: NCI-60 one-dose screen, 48 h
RECORDED_CONDITIONS: 10 µM unless noted
This is part of a sample that, as a whole, favours compounds with a hit. Of some 83,000 tested, about 20% had one in any assay. Active and inactive are the calls of the source. How the source made its calls: active means growth percent below 10; inactive means the rest.
Hi there, use one of these labels in your reply, thanks! yes = active, no = inactive

Hi, do you know how `NC(=O)c1cccc(-c2ccc(S(=O)(=O)Nc3ccc4c(c3)N(C(=O)C3CC3)CCC4)cc2)c1` came out in this test? no

What was the test verdict on `O=C(Nc1cc(-c2cccnc2)nc(NCCCN2CCOCC2)n1)c1cc(Br)cc(C(F)(F)F)c1` ? no

Give the logged outcome of this assay for the following molecule: `O=c1[nH]c2cc(Cl)c(Cl)cc2n2cc3ncccc3c12` no

Kindly provide the recorded test outcome for the following molecule: `Cn1cc(-c2noc(C(=O)c3cn(C)c4ncccc34)n2)c2ccccc21` no

# fetch the recorded call for COc1ccc2c(c1)C(C)Cc1c(Cl)nc(C)nc1N2C (stereo not drawn) here no

Recorded call for `Cc1nc(-c2ccccc2)sc1CC#N` ? no

For `COc1ccc(-c2cc(-c3ccc(Cl)cc3)nc(SCCCCCCC(=O)NO)n2)cc1` , what call appears in the results of this test? no

Called result for O=C(C[n+]1ccn(CC(OCc2ccc(Cl)cc2Cl)c2ccc(Cl)cc2Cl)c1)c1ccc(F)cc1 (stereo not drawn) yes

Please let me know the test result on file for `Cc1ccc(-c2cc(O)c(-c3ccc(C)cc3C)cc2O)c(C)c1` . no

Tell me the assay call for `C[C@@H]1C[C@H]2C(=O)O[C@@H](C)[C@H](NC(=O)[C@H](Cc3cc(F)cc(F)c3)NC(=O)Nc3ccc(C4CC4)cc3F)C(=O)N3CCC[C@H]3C(=O)N3CCCC[C@H]3C(=O)N[C@@H](C)C(=O)N2C1` please. no

Kindly provide the recorded test outcome for the following molecule: `CCNc1cc2c(cc1Br)-c1ccccc1C2=O` no

Hi, sorry to bother you, what did the test record for `CC(C)=CCC[C@](C)(O)[C@H]1CC[C@]2(C)[C@@H]1CC[C@@H]1[C@@]3(C)CC/C(=N/O)C(C)(C)[C@@H]3CC[C@]12C` ? yes

For `C=C(C)[C@@H]1CC[C@]2(C(=O)OC)CC[C@]3(C)[C@H](CC[C@@H]4[C@@]5(C)CC/C(=N\OCCC(=NCCC#N)NOCCC#N)C(C)(C)[C@@H]5CC[C@]43C)[C@@H]12` , what call appears in the results of this test? no

Test call, this molecule: `CCOc1cc(NC(=O)c2ccccc2)c(OCC)cc1N` no

So what was the verdict on `O=C(Nc1cccc(F)c1)c1cc(=O)[nH]c2cc(Br)ccc12` in this test? no
